- subject of test: Her2 Exon 20 INSYVMA Ba/F3 (Homo sapiens, UniProt P04626, DUP772-775, cells depend on it)
- Sequence (P04626 with tags, fused parts or gaps DUP772-775): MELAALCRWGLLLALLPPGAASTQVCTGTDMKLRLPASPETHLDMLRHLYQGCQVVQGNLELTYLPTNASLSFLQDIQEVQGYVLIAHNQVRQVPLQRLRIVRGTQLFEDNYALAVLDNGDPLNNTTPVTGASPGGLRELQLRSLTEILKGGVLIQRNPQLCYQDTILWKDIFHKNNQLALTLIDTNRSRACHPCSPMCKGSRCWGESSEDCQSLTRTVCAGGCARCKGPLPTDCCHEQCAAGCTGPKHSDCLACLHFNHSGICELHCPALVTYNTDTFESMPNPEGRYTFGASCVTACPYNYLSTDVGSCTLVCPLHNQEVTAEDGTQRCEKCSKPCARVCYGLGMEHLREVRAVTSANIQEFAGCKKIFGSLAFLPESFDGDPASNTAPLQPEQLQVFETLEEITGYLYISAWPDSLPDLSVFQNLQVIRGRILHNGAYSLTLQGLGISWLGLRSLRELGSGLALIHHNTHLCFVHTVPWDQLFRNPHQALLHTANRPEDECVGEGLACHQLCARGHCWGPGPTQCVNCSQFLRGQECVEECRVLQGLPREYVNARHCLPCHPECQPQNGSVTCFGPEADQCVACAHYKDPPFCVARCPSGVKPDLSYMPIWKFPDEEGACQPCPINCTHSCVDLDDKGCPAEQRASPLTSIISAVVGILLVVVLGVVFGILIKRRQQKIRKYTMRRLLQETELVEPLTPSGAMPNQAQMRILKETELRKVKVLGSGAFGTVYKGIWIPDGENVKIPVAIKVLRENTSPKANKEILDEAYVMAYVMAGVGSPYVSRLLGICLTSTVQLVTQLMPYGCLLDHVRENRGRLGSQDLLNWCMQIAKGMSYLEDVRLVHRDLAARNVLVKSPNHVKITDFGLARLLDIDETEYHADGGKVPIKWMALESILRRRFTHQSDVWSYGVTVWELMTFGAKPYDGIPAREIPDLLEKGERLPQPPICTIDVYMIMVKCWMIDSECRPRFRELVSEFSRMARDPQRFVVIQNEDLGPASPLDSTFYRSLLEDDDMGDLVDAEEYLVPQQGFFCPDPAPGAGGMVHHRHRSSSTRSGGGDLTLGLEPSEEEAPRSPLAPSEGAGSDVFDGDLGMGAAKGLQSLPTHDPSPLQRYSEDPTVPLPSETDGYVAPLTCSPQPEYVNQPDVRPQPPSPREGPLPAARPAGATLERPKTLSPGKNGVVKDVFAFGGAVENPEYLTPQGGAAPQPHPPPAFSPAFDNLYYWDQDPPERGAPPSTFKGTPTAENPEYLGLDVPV
- method: Her2 Exon 20 INSYVMA Ba/F3 CellTiter-Glo
- Type: cell-based
- measurement parameters: CellTiter-Glo, 72 h, read-out: Her2 Exon 20 INSYVMA Ba/F3 CTG IC50
Measured GI50 by item

The cases that follow already have their GI50 on record.
C=CC(=O)Nc1cc(-c2c(-c3ccc(N4CCN(C(C)C)CC4)cc3)[nH]c3nccc(Cl)c23)ccc1C; ≤ 0.1 µM
C=CC(=O)Nc1cc(-c2c(-c3ccc(N4CCN(C)CC4)cc3)[nH]c3ncc(NC(C)=O)cc23)ccc1C; 1 to 10 µM

Short answer for C=CC(=O)Nc1cc(-c2c(-c3ccc(N4CCN(C)CC4)cc3)[nH]c3nccc(Cl)c23)cc(C)c1C [Example 150, 2,2,2-trifluoroacetate] : GI50 was 0.5 to 1 µM

Please fill in: GI50 reported for `C=CC(=O)Nc1cc(-c2c(-c3ccc(N4CCN(C)CC4)cc3)[nH]c3ncc(C(=O)NCc4ccc(NC(C)=O)cc4)cc23)ccc1C` = > 10 µM

// recorded GI50 for `C=CC(=O)Nc1cc(-c2c(-c3ccc(OCCCN4CCN(CC)CC4)cc3)[nH]c3nccc(Cl)c23)ccc1C` : 0.1 to 0.5 µM

Input `C=CC(=O)Nc1cc(-c2c(-c3ccc(Cl)c(C(=O)N4CCOCC4)c3)[nH]c3nccc(Cl)c23)ccc1C` . Output GI50: 1 to 10 µM

Reported GI50 for `C=CC(=O)Nc1cc(-c2c(-c3cccc(OCCN(C)C)c3)[nH]c3nccc(Cl)c23)ccc1C` was 0.1 to 0.5 µM

###

- subject of test: Her2 Exon 20 INSYVMA Ba/F3 (Homo sapiens, UniProt P04626, DUP772-775, cells depend on it)
- method: Her2 Exon 20 INSYVMA Ba/F3 CellTiter-Glo
- Type: cell-based
- measurement parameters: CellTiter-Glo, 72 h, read-out: Her2 Exon 20 INSYVMA Ba/F3 CTG IC50
Below is a list of entries, each paired with its recorded GI50 value.

Some entries whose results are on file:
C=CC(=O)N1CCc2ccc(-c3c(-c4ccc(C(=O)N5CCN(C)CC5)cc4)[nH]c4nccc(Cl)c34)cc21; 100 to 500 nM
C=CC(=O)Nc1cc(-c2c(-c3ccc(C4CCN(C)CC4)cc3)[nH]c3ncc(C(=O)OC(C)C)cc23)ccc1C; 100 to 500 nM
C=CC(=O)N1CCc2ccc(-c3c(-c4cccc(CN5CCN(C)CC5)c4)[nH]c4nccc(Cl)c34)cc21; 100 to 500 nM
C=CC(=O)N1CCCc2ccc(-c3c(-c4ccc(OCCN(C)C)cc4)[nH]c4nccc(Cl)c34)cc21; 500 to 1000 nM
C=CC(=O)Nc1cc(-c2c(-c3ccc(N4CCN(C)CC4)cc3)[nH]c3ncc(C(=O)NCc4nncn4C)cc23)ccc1C; > 10000 nM
C=CC(=O)Nc1cc(-c2c(-c3ccc(C4CCN(C)CC4)cc3)[nH]c3nccc(OC)c23)ccc1C; ≤ 100 nM

The molecule listed as `C=CC(=O)Nc1cc(-c2c(-c3cnc(N4CCOCC4)nc3)[nH]c3ncc(C(=O)OC(C)C)cc23)ccc1C` shows GI50 equal to 1000 to 10000 nM

Consider `C=CC(=O)N1CCOc2ccc(-c3c(-c4ccc(N5CCN(CC)CC5)cc4)[nH]c4nccc(Cl)c34)cc21` . Its measured GI50 is 100 to 500 nM

GI50 reported for this molecule `C=CC(=O)Nc1cc(-c2c(-c3ccc(OCCN(C)C)cc3)[nH]c3ncc(C(=O)OC(C)C)cc23)ccc1C` : 100 to 500 nM

Reported GI50 ( `C=CC(=O)N1CCc2ccc(-c3c(-c4cccc(OCCN5CCCC5)c4)[nH]c4nccc(OCC)c34)cc21` ) = 100 to 500 nM

Sure, the documented GI50 for C=CC(=O)Nc1cc(-c2c(-c3ccc(N4CCN(C)CC4)cc3)[nH]c3ncc(OC(F)(F)F)cc23)ccc1C [Example 188, 2,2,2-trifluoroacetate] is 100 to 500 nM

Lab note: `C=CC(=O)Nc1cc(-c2c(-c3ccc(CN4CCOCC4)cc3)[nH]c3nccc(OC)c23)ccc1C` gave GI50 of 100 to 500 nM

GI50 for C#CC(=O)Nc1cc(-c2c(-c3ccc(N4CCN(C)CC4)cc3)[nH]c3nccc(Cl)c23)ccc1C [Example 144, 2,2,2-trifluoroacetate] is 1000 to 10000 nM

The molecule listed as `C=CC(=O)N1CCc2ccc(-c3c(-c4ccc(OCCN5CCCC5)cc4)[nH]c4nccc(OC)c34)cc21` shows GI50 equal to 500 to 1000 nM

###

- subject of test: HER2 INS YVMA (Homo sapiens, UniProt P04626, INS775YVMA)
- Construct: purchased DPF
- Sequence (P04626 with tags, fused parts or gaps INS775YVMA): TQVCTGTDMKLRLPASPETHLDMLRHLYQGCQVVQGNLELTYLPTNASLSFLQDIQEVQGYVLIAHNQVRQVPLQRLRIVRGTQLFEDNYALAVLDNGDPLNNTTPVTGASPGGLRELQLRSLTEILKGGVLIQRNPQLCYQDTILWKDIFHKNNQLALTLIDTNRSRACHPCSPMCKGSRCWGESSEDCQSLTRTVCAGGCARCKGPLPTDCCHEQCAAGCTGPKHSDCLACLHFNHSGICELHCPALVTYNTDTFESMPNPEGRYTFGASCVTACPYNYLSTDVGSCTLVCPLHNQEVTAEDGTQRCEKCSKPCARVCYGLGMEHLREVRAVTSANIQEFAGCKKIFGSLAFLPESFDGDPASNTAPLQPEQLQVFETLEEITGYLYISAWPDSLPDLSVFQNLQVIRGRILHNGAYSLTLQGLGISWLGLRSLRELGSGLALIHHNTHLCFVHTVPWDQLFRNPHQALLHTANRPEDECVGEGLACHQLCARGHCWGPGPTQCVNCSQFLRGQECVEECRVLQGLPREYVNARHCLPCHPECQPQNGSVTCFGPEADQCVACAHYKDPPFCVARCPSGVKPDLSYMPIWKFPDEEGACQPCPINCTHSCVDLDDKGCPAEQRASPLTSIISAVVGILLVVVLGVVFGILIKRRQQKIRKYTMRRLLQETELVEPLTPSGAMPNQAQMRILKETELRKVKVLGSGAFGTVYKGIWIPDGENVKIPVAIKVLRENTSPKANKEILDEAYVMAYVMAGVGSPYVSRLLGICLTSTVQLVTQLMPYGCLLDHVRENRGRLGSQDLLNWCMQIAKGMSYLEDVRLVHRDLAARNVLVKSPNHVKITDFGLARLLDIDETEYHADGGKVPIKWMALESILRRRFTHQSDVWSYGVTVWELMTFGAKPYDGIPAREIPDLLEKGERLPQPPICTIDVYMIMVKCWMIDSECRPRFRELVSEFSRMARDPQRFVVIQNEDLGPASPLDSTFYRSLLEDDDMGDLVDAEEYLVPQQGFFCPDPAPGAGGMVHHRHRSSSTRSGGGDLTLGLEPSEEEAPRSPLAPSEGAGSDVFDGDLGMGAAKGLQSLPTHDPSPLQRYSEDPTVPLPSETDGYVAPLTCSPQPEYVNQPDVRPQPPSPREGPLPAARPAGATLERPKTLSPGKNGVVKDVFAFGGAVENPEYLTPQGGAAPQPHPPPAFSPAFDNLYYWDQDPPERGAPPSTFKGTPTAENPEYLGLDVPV
- method: Lance Kinase Activity Assay, HER2 INS YVMA (Her2 Exon 20 INSYVMA Lance)
- Type: biochemical
- measurement parameters: biochemical Lance assay
pIC50: −log10 of the molar value.
Listing: pIC50 of selected compounds

Answered examples (5):
C=CC(=O)N1CCc2ccc(-c3c(-c4ccc(C5CCN(C)CC5)cc4)[nH]c4nccc(Cl)c34)cc21 [Example 55, 2,2,2-trifluoroacetate]; ≥ 7.00
C=CC(=O)Nc1cc(-c2c(-c3cccc(N4CCN(C)CC4)c3)[nH]c3nccc(Cl)c23)ccc1C; ≥ 7.00
C=CC(=O)Nc1cc(-c2c(-c3ccc(N4CCN(C)CC4)cc3)[nH]c3ncc(C(=O)NCC4CCN(C)CC4)cc23)ccc1C; 6.00 to 6.30
C=CC(=O)Nc1cc(-c2c(-c3cccc(C(=O)NCCCN4CCN(CC)CC4)c3)[nH]c3nccc(Cl)c23)ccc1C; 6.30 to 7.00
C=CC(=O)N1CCc2ccc(-c3c(-c4ccnc(N5CCN(C)CC5)c4)[nH]c4nccc(Cl)c34)cc21; ≥ 7.00

Reported HER2 INS YVMA (Homo sapiens, UniProt P04626, INS775YVMA) pIC50 for item `C=CC(=O)Nc1cc(-c2c(-c3ccc(C4CCN(C)CC4)cc3)[nH]c3nccc(Cl)c23)cc(C)c1C` was ≥ 7.00

Param item: `C=CC(=O)N1CCc2ccc(-c3c(-c4ccc(CN5CCN(C)CC5)cc4)[nH]c4nccc(OCC)c34)cc21` ; param system: HER2 INS YVMA (Homo sapiens, UniProt P04626, INS775YVMA); output pIC50: ≥ 7.00

pIC50 for HER2 INS YVMA (Homo sapiens, UniProt P04626, INS775YVMA) with input `C=CC(=O)Nc1cc(-c2c(-c3cnc(N4CCN(C)CC4)nc3)[nH]c3nccc(Cl)c23)ccc1C` equals 6.30 to 7.00

###

Measured GI50 values are reported for all entries that follow.
- subject of test: EGFR Exon 20 INSNPH Ba/F3 (Homo sapiens, UniProt P00533, DUP771-773, cells depend on it)
- Sequence (P00533 with tags, fused parts or gaps DUP771-773): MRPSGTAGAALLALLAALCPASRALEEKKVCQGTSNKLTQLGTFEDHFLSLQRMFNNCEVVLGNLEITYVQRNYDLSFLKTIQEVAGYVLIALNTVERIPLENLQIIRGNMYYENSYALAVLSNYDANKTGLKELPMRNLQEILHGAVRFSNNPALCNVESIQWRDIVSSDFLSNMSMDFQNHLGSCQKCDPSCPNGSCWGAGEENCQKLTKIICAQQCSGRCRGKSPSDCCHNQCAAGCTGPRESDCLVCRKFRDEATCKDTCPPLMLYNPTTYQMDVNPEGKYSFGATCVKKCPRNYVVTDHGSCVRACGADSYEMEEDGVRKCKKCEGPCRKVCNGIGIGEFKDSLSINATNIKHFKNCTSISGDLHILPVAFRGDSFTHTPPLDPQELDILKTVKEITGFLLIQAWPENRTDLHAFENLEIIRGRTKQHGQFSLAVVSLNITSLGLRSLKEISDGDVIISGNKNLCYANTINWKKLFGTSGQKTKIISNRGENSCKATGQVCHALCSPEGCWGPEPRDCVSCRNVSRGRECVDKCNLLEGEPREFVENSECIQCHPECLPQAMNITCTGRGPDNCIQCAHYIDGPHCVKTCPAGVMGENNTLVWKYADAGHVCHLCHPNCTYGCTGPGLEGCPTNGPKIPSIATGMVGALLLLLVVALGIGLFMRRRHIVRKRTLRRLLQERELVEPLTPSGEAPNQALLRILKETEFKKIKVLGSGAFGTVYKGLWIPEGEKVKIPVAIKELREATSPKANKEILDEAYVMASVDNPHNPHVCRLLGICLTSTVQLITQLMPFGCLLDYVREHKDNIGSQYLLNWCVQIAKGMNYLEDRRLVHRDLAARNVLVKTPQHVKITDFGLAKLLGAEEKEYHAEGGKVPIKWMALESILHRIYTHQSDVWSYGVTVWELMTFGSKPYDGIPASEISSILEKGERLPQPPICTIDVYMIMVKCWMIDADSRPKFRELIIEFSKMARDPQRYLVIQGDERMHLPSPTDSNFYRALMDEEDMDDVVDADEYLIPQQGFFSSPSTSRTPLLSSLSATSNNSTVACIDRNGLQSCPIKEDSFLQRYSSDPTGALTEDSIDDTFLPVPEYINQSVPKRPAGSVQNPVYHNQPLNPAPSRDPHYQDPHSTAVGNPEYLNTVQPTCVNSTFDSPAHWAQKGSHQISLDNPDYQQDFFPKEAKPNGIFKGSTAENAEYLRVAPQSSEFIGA
- method: EGFR Exon 20 INSNPH Ba/F3 CellTiter-Glo
- Format: cell-based
- measurement parameters: CellTiter-Glo, 72 h, read-out: EGFR Exon 20 INSNPH Ba/F3 CTG IC50

C=CC(=O)N1CCCc2ccc(-c3c(-c4cccc(OCCN(C)C)c4)[nH]c4nccc(Cl)c34)cc21 [Example 88]; 1000 to 10000 nM
C=CC(=O)N1CCc2ccc(-c3c(-c4ccnc(N5CCN(C)CC5)c4)[nH]c4nccc(OC)c34)cc21 [Example 111]; ≤ 100 nM
C=CC(=O)Nc1cc(-c2c(-c3ccc(F)c(C(=O)N4CCOCC4)c3)[nH]c3nccc(Cl)c23)ccc1C [Example 33]; 1000 to 10000 nM
C=CC(=O)Nc1cc(-c2c(-c3ccc(N4CCN(C)CC4)c(F)c3)[nH]c3nccc(Cl)c23)ccc1C [Example 42]; 100 to 500 nM
C=CC(=O)N1CCc2ccc(-c3c(-c4ccc(N5CCN(C)CC5)cc4)[nH]c4nccc(OC)c34)cc21 [Example 110]; 100 to 500 nM

I looked up C=CC(=O)Nc1cc(-c2c(-c3ccc(OCCN4CCCC4)cc3)[nH]c3ncc(C(=O)OC(C)C)cc23)ccc1C [Example 158] and its GI50 for EGFR Exon 20 INSNPH Ba/F3 (Homo sapiens, UniProt P00533, DUP771-773, cells depend on it) was 100 to 500 nM

Short answer on EGFR Exon 20 INSNPH Ba/F3 (Homo sapiens, UniProt P00533, DUP771-773, cells depend on it) for C=CC(=O)Nc1cc(-c2c(-c3cccc(C(=O)N4CCC5(CCNC5=O)CC4)c3)[nH]c3nccc(Cl)c23)ccc1C [Example 46] , GI50: 1000 to 10000 nM

Param item: C=CC(=O)N1CCOc2ccc(-c3c(-c4cccc(OCCN5CCCC5)c4)[nH]c4nccc(Cl)c34)cc21 [Example 103] ; param system: EGFR Exon 20 INSNPH Ba/F3 (Homo sapiens, UniProt P00533, DUP771-773, cells depend on it); output GI50: 100 to 500 nM

So the reported GI50 for C=CC(=O)Nc1cc(-c2c(-c3ccc(C4CCNCC4)cc3)[nH]c3nccc(Cl)c23)ccc1C [Example 29] , on EGFR Exon 20 INSNPH Ba/F3 (Homo sapiens, UniProt P00533, DUP771-773, cells depend on it), turned out to be 500 to 1000 nM

Summary line: C=CC(=O)Nc1cc(-c2c(-c3ccc(N4CCN(C)CC4)nc3)[nH]c3ncccc23)ccc1C [Example 78, 2,2,2-trifluoroacetate] , EGFR Exon 20 INSNPH Ba/F3 (Homo sapiens, UniProt P00533, DUP771-773, cells depend on it), reported GI50 = 500 to 1000 nM

Form: item C=CC(=O)Nc1cc(-c2c(-c3cnc(N4CCN(C)CC4)nc3)[nH]c3nccc(Cl)c23)ccc1C [Example 39] ; test system EGFR Exon 20 INSNPH Ba/F3 (Homo sapiens, UniProt P00533, DUP771-773, cells depend on it); GI50: 1000 to 10000 nM

Known value: EGFR Exon 20 INSNPH Ba/F3 (Homo sapiens, UniProt P00533, DUP771-773, cells depend on it) GI50 of the molecule C=CC(=O)N1CCCc2ccc(-c3c(-c4cccc(OCCN5CCCC5)c4)[nH]c4nccc(Cl)c34)cc21 [Example 94] equals 1000 to 10000 nM

// GI50 (EGFR Exon 20 INSNPH Ba/F3 (Homo sapiens, UniProt P00533, DUP771-773, cells depend on it)) for C=CC(=O)Nc1cc(-c2c(-c3ccc(CN4CCN(C)CC4)cc3)[nH]c3nccc(OC)c23)ccc1C [Example 77] = 100 to 500 nM

Test item Cc1ccc(-c2c(-c3ccc(N4CCN(C)CC4)cc3)[nH]c3ncc(C(=O)OC(C)C)cc23)cc1NC(=O)/C=C/CN(C)C [Example 148] ; EGFR Exon 20 INSNPH Ba/F3 (Homo sapiens, UniProt P00533, DUP771-773, cells depend on it); reported GI50 was 500 to 1000 nM
